- Read-out: Glutamate-cysteine ligase regulatory (GCLM), GCLM (gene 2730)
- ASSAY_INFO: LTEA_HepaRG_GCLM: Life Technologies and Expression Analysis (LTEA) Assay for Glutamate-cysteine ligase regulatory (GCLM) using HepaRG (AID 2283500)
- DETAILS: mRNA level, 48 h; actives raise or lower the signal
The source made the active and inactive calls. Rule for the calls: active = hit-call score of the fitted dose curve at least 0.9, where 1 is the maximum; inactive = score below 0.9.
Your answer must be one of the following: Y (active), N (inactive)

Example cases with answers are listed next.
[[record]]
compound = "CCOC(=O)CC(CC(=O)OCC)(OC(C)=O)C(=O)OCC"
class_name = "N"

[[record]]
compound = "CCCC(=O)OCC"
class_name = "N"

[[record]]
compound = "Cc1ccc(O)cc1"
class_name = "N"


Kindly provide the recorded test outcome for the following compound: COc1ccc(-n2nc(C(F)F)cc2-c2ccc(S(C)=O)cc2)cc1 (stereo unspecified)
N

Kindly provide the recorded test outcome for the following compound: `CC1=CC(=O)CC(C)(C)C1`
N
